- Tested On: T1, MED17 (mouse (Mus musculus; endogenous in CH12), UniProt Q8VCD5 1-649)
- T1 construct: MED17, Mus musculus, endogenous Head module scaffold subunit of Mediator; source: endogenous, CH12 mouse B lymphoma nuclear extract; immunopurified as part of Mediator (FLAG M2 agarose, FLAG peptide elution)
- T1 sequence (looked up): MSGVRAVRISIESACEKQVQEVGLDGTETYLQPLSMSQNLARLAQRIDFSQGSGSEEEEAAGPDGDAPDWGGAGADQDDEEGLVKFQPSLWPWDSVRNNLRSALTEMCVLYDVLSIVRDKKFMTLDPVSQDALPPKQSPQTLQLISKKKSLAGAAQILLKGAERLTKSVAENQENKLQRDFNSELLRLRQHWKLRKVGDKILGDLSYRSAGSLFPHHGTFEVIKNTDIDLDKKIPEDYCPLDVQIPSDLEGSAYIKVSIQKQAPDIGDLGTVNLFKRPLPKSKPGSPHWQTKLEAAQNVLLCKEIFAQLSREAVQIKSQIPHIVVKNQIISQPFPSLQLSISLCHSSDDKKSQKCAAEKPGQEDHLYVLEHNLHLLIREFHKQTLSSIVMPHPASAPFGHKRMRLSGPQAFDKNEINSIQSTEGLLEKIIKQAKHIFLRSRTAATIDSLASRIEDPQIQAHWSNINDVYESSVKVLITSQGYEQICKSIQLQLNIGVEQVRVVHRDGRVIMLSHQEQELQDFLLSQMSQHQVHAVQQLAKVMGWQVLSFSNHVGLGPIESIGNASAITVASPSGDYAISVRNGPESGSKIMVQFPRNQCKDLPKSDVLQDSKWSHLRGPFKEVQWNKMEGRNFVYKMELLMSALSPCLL
- Method Notes: cryo-EM structure; endogenous mouse Mediator immunopurified from CH12 nuclear extract through 3×FLAG-MED19 or 3×FLAG-MED25; eluted in 50 mM HEPES pH 7.9, 100 mM KCl, 5% glycerol, 1 mM EDTA, 0.005% NP-40; map at 4.0 Å overall, focused refinement of the MED1 and knob/hook ends (6-10 Å)
- Condition: both partners purified
Property Label: binding result

{"Binder": "MED28 (natural protein, mouse (Mus musculus; endogenous in CH12), UniProt Q920D3 1-178, looked up, MED28, Mus musculus, endogenous upper Tail subunit of Mediator; source: endogenous, CH12 mouse B lymphoma nuclear extract; immunopurified as part of Mediator (FLAG M2 agarose, FLAG peptide elution)) MAASLGGMFTGQPPGPPPPPPGLPGQASLLQAAPGAPRPSNSTLVDELESSFEACFASLVSQDYVNGTDQEEIRTGVDQCIQKFLDIARQTECFFLQKRLQLSVQKPDQVIKEDVSELRSELQRKDALVQKHLTKLRHWQQVLEDINVQHKKPADMPQGSLAFLEQASANIPAPLKQT", "binding result": "binds"}
{"Binder": "MED11 (natural protein, mouse (Mus musculus; endogenous in CH12), UniProt Q9D8C6 1-117, looked up, MED11, Mus musculus, endogenous Head module subunit of Mediator; source: endogenous, CH12 mouse B lymphoma nuclear extract; immunopurified as part of Mediator (FLAG M2 agarose, FLAG peptide elution)) MATYSLANERLRALEDIEREIGAILQNAGTAILELSKEKTNERLLDRQAAAFTTSVQHVEAELSAQIRYLTQVATGQPHEGSSYSSRKDCQMALKRVDYARLKISDVARTCEQMLEN", "binding result": "binds"}
{"Binder": "MED27 (natural protein, mouse (Mus musculus; endogenous in CH12), UniProt Q9DB40 1-311, looked up, MED27, Mus musculus, endogenous upper Tail subunit of Mediator; source: endogenous, CH12 mouse B lymphoma nuclear extract; immunopurified as part of Mediator (FLAG M2 agarose, FLAG peptide elution)) MADVLSVGVNLEAFSQAISAIQALRSSVSRVFDCLKDGMRNKETLEGREKAFIANFQDNLHSVNRDLNELERLSNLVGKPSENHPLHNSGLLSLDPVQDKTPLYSQLLQAYKWSNKLQYHAGLASGLLNQQSLKRSANQMGVSAKRRPKAQPTTLVLPPQYVDDVISRIDRMFPEMSIHLSRPNGTSAMLLVTLGKVLKVIVVMRSLFIDRTIVKGYNESVYTEDGKLDIWSKSSYQVFQKVTDHATTALLHYQLPQMPDVVVRSFMTWLRSYIKLFQAPCQRCGKFLQDGLPPTWRDFRTLEAFHDTCRQ", "binding result": "binds"}
{"Binder": "MED20 (natural protein, mouse (Mus musculus; endogenous in CH12), UniProt Q9R0X0 1-212, looked up, MED20, Mus musculus, endogenous Head module subunit of Mediator; source: endogenous, CH12 mouse B lymphoma nuclear extract; immunopurified as part of Mediator (FLAG M2 agarose, FLAG peptide elution)) MGVTCVSQMPVAEGKSLQQTVELLTKKLEMLGAEKQGTFCVDCETYHTAASTLGSQGQAGKLMYVMHNSEYPLSCFALFENGPCLIADTNFDVLMVKLKGFFQSAKASKIETRGTRYQYCDFLVKVGTVTMGPSARGISVEVEYGPCVVASDCWSLLLEFLQSFLGSHAPGAPTVFGNRHDAVYGPADTMIQYMELFNKIRKQQQVPVAGIR", "binding result": "binds"}
{"Binder": "MED30 (natural protein, mouse (Mus musculus; endogenous in CH12), UniProt Q9CQI9 1-178, looked up, MED30, Mus musculus, endogenous upper Tail subunit of Mediator; source: endogenous, CH12 mouse B lymphoma nuclear extract; immunopurified as part of Mediator (FLAG M2 agarose, FLAG peptide elution)) MSTPPLAPTGMASGPFGGPQAQQAAREVNTATLCRIGQETVQDIVYRTMEIFQLLRNMQLPNGVTYHTGTYQDRLTKLQDHLRQLSILFRKLRLVYDKCNENCGGMDPIPVEQLIPYVDEDGSKNDDRAGPPRFASEERREIVEVNKKLKQKNQQLKQIMDQLRNLIWDINAMLAMRN", "binding result": "binds"}
{"Binder": "MED22 (natural protein, mouse (Mus musculus; endogenous in CH12), UniProt Q62276 1-200, looked up, MED22, Mus musculus, endogenous Head module subunit of Mediator; source: endogenous, CH12 mouse B lymphoma nuclear extract; immunopurified as part of Mediator (FLAG M2 agarose, FLAG peptide elution)) MAQQRALPQSKETLLQSYNKRLKDDIKSIMDNFTEIIKTAKIEDETQVSRATQGEQDNYEMHVRAANIVRAGESLMKLVSDLKQFLILNDFPSVNEAIDQRNQQLRALQEECDRKLITLRDEVSIDLYELEEEYYSSSSSLCEANDLPLCEAYWRLDLDADSADGLSAPLLASPETGAGPLQSAAPVHSHGGGPGPTEHT", "binding result": "binds"}

As a next step, examine the binder that follows.
Problem: Quote binding result reported for MED18 (natural protein, mouse (Mus musculus; endogenous in CH12), UniProt Q9CZ82 1-208, looked up, MED18, Mus musculus, endogenous Head module subunit of Mediator; source: endogenous, CH12 mouse B lymphoma nuclear extract; immunopurified as part of Mediator (FLAG M2 agarose, FLAG peptide elution)) MEAPPVTMMPVTGGTINMMEYLLQGSVLDHSLESLIHRLRGLCDNMEPETFLDHEMVFLLKGQQASPFVLRARRSMDRAGAPWHLRYLGQPEMGDKNRHALVRNCVDIATSENLTDFLMEMGFRMDHEFVAKGHLFRKGIMKVVVYKIFRILVPGNTDSTEALSLSYLVELSVVAPAGQDMVSDDMRNFAEQLKPLVHLEKIDPKRLM please.
Result: binds
